sequences and their reported binding signal
- Target system: GST-Dm-Relish (Drosophila melanogaster, UniProt Q94527 99-473)
- Sequence: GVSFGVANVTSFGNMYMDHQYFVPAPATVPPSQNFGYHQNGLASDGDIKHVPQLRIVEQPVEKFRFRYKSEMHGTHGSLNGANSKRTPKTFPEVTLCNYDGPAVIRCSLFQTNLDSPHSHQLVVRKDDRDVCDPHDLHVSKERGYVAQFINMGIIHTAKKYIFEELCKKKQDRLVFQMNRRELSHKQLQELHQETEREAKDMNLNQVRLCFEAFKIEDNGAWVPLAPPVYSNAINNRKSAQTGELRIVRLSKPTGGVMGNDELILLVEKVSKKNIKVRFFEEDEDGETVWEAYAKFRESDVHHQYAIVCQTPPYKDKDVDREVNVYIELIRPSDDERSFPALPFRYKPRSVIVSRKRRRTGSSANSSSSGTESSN
- Measurement protocol: protein-binding microarray (PBM); PBM: ~300 nM protein, 6 mM HEPES pH 7.8, 80 mM KCl, 0.5 mM EDTA, 0.5 mM EGTA, 6% glycerol, 35 ng/ul poly-dIdC, 1% milk, 1 h, room temperature; high values mean tight binding
- Run conditions: dsDNA, one strand shown
State just the number; it will be interpreted in z-score.

>>> obs_value("CCGATTAACATCACATATTTCCCTGATGTTAATCGGGTCTTGATTCGCTTGACGCTGCTG")
1.93
>>> obs_value("CCGATTAACATCACGTATTTCCCTGATGTTAATCGGGTCTTGATTCGCTTGACGCTGCTG")
4.26
>>> obs_value("CCGATTAACATCAAAAATTACCATGATGTTAATCGGGTCTTGATTCGCTTGACGCTGCTG")
3.14
>>> obs_value("CCGATTAACATCAGGGAAATAACTGATGTTAATCGGGTCTTGATTCGCTTGACGCTGCTG")
4.51
>>> obs_value("CCGATTAACATCAGGGAAAAAAATGATGTTAATCGGGTCTTGATTCGCTTGACGCTGCTG")
2.19
>>> obs_value("CCGATTAACATCAGAGAATTCCCTGATGTTAATCGGGTCTTGATTCGCTTGACGCTGCTG")
4.51
>>> obs_value("CCGATTAACATCAGGGAAAATTATGATGTTAATCGGGTCTTGATTCGCTTGACGCTGCTG")
2.28
>>> obs_value("CCGATTAACATCAGGAAAAATACTGATGTTAATCGGGTCTTGATTCGCTTGACGCTGCTG")
1.36

Q. Fill in: binding signal of CCGATTAACATCACGGAAAGTACTGATGTTAATCGGGTCTTGATTCGCTTGACGCTGCTG is ___
A. 4.11

----------
- Target system: GST-Ap-NF-kB RHD (Exaiptasia pallida (Aiptasia), UniProt A0A913YAJ5 2-422)
- Sequence: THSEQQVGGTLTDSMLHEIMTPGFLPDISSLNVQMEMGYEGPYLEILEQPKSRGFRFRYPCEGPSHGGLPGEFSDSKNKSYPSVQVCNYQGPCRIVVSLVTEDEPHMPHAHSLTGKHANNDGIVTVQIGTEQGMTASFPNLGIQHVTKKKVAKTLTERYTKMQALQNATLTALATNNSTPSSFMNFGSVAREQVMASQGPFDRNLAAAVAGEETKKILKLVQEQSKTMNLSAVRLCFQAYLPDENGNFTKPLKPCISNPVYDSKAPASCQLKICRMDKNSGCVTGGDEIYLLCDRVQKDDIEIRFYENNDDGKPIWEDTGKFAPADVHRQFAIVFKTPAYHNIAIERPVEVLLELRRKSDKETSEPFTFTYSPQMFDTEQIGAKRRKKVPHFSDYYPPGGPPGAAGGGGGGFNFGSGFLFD
- Measurement protocol: protein-binding microarray (PBM); PBM: ~300 nM protein, 6 mM HEPES pH 7.8, 80 mM KCl, 0.5 mM EDTA, 0.5 mM EGTA, 6% glycerol, 35 ng/ul poly-dIdC, 1% milk, 1 h, room temperature; Ap Aiptasia and Nv Nematostella (sea anemones) / Co Capsaspora / Aq Amphimedon (sponge) / Dm Drosophila / Hu human; RHD is the Rel homology domain; high values mean tight binding
- Run conditions: dsDNA, one strand shown
Attribute measured: binding signal (z-score)
The reply should contain only the number, in z-score.

Solved cases (3 shown):
>>> obs_value("CCGATTAACATCAACCATTCCCCTGATGTTAATCGGGTCTTGATTCGCTTGACGCTGCTG")
5.66
>>> obs_value("CCGATTAACATCAAATCGGGAAATGATGTTAATCGGGTCTTGATTCGCTTGACGCTGCTG")
1.42
>>> obs_value("CCGATTAACATCAAAAGAATCCCTGATGTTAATCGGGTCTTGATTCGCTTGACGCTGCTG")
3.44

Q. Returns the measured binding signal for the input sequence. Input: CCGATTAACATCAGGGGATTCTATGATGTTAATCGGGTCTTGATTCGCTTGACGCTGCTG
A. 8.9

Q. Same question, CCGATTAACATCAGGGGAACATATGATGTTAATCGGGTCTTGATTCGCTTGACGCTGCTG this time
A. 5.1

Q. Please answer likewise for CCGATTAACATCAATTATTCCCCTGATGTTAATCGGGTCTTGATTCGCTTGACGCTGCTG
A. 6.67

Q. Repeat with CCGATTAACATCAGGGGGAATAATGATGTTAATCGGGTCTTGATTCGCTTGACGCTGCTG
A. 7.08

Q. Try CCGATTAACATCACCCCCCCTGATGATGTTAATCGGGTCTTGATTCGCTTGACGCTGCTG next.
A. 4.83

Q. Repeat with CCGATTAACATCAGGGGTAGGTTTGATGTTAATCGGGTCTTGATTCGCTTGACGCTGCTG
A. 2.16

src = paper PMC5700166
